- Experimental Target: T1, human LRRC33-proTGFβ1 complex (human, UniProt Q86YC3 19-650; P01137 30-390)
- T1 construct: also called hLRRC33-proTGFβ1; hLRRC33
- T1 sequence (Q86YC3 other isoform, or with tags, fused parts or gaps limits assumed, chain 1 of 2): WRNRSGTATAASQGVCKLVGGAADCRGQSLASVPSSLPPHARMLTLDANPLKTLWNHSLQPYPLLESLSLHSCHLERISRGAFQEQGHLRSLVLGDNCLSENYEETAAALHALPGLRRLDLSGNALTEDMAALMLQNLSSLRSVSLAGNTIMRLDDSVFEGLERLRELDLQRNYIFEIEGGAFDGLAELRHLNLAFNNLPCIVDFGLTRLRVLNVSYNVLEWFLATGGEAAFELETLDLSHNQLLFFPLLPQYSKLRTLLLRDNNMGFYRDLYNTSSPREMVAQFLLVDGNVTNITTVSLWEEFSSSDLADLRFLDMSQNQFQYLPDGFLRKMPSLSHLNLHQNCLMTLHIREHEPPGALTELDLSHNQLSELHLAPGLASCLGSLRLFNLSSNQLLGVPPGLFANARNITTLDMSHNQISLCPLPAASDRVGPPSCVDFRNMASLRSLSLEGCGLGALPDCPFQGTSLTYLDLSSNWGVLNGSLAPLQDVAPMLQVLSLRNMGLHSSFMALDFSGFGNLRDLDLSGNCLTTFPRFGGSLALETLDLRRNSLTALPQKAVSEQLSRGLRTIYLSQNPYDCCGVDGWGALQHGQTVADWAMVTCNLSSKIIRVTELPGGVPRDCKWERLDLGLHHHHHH
- T1 sequence (P01137 30-390 limits assumed, chain 2 of 2): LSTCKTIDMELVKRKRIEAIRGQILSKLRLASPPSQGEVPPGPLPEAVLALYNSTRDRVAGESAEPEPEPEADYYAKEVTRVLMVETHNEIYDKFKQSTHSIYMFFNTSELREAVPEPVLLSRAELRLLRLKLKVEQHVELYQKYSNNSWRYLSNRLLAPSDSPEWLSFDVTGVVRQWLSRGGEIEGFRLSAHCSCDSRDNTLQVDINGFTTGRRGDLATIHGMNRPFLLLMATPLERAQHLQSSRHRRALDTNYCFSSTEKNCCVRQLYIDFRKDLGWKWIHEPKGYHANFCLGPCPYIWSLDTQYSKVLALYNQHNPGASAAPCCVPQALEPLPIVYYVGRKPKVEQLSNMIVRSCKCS
- Assay Details: BLI (Octet)
Quantity Measured: Kd (nM)
Give a bare numeral; the unit nM is implied.

Below, each entry is followed by its recorded Kd result.
>>> observed_value("Ab21 (antibody, V domains shown) VH: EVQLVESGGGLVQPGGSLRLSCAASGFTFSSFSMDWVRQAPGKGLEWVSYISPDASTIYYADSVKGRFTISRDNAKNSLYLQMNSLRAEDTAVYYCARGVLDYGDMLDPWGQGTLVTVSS VL: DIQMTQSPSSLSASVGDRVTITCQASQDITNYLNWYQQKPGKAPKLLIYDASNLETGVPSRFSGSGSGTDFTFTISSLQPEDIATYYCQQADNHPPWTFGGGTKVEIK")
0.455
>>> observed_value("Ab33 (antibody, IgG4, V domains shown) VH: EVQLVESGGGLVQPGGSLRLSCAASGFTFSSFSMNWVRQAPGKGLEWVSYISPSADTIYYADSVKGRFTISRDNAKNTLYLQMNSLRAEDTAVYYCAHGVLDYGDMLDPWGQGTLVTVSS VL: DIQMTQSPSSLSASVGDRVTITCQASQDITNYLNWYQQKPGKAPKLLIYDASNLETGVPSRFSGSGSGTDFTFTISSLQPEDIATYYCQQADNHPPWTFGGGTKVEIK")
0.339
>>> observed_value("Ab17 (antibody, V domains shown) VH: EVQLLESGGGVVQPGGSLRLSCAASGFTFSSFAMTWVRQAPGKGLEWVSAISGSGAATYFADSVKGRFTISRDNSKNTLYLQMNSLRAEDTAVYYCARVSSGHWDFDYWGQGTLVTVSS VL: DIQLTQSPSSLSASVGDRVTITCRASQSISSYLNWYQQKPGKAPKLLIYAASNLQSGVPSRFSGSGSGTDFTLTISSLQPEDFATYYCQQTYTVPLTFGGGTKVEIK")
0.658

Summary for this binder, Ab25 (antibody, V domains shown) VH: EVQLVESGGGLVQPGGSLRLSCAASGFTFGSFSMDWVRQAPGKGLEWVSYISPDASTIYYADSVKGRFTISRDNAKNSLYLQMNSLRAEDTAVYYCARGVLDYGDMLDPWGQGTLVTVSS VL: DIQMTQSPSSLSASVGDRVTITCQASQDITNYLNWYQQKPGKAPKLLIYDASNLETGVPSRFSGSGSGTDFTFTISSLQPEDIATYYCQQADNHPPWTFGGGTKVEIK : Kd is 0.409

The value of Kd measured for the binder Ab29 (antibody, IgG4, V domains shown) VH: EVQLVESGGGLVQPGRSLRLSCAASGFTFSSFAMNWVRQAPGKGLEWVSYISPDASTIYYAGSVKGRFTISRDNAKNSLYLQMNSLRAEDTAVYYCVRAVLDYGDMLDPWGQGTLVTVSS VL: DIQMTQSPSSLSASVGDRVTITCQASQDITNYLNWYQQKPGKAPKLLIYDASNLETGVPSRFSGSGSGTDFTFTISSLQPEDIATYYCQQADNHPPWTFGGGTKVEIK turned out to be 0.302
